This section presents molecules with their documented pKi values.
- EXPERIMENTAL SYSTEM: membrane-bound tripeptidylpeptidase II (Rattus norvegicus)
- ASSAY NOTES: Measurement of the activity of membrane-bound tripeptidylpeptidase (release of Amc from A-AP-Amc, fluorimetry)
- CONDITION SUMMARY: Ki, apparent dissociation constant calculated from the 50% inhibitory concentration and the KM of the substrate (23 μM); rat brain membranes, 50 μM A-AP-Amc
Where a SMILES comes first, the peptide text is derived from it. The star is where a group is joined. NHBu = CCCCN*
Formally, pKi is defined as -log10 of the concentration c, with c in mol/L.

{"columns": ["MOLECULE", "pKi"],
 "data": [
  ["CCCCCCNC(=O)[C@@H]1CCCN1C(=O)[C@@H](N)C(C)C [Example 1, L-valyl-L-proline n-hexylamide]", 6.05]
]}

Asked: Value lookup for pKi; key = CCCCNC(=O)[C@@H]1CCCN1C(=O)[C@@H](N)C(C)C [Example 8, L-valyl-L-proline n-butylamide] (H-Val-Pro-NHBu)
Given back: 6.24

Asked: Could you do the same for CCCCNC(=O)C1Cc2cc(F)ccc2N1C(=O)[C@@H](N)CC (mixture of isomers) , please?
Given back: 7.92

###

- EXPERIMENTAL SYSTEM: membrane-bound tripeptidylpeptidase II (Rattus norvegicus)
- ASSAY NOTES: Measurement of the activity of membrane-bound tripeptidylpeptidase (release of Amc from A-AP-Amc, fluorimetry)
- CONDITION SUMMARY: Ki, apparent dissociation constant calculated from the 50% inhibitory concentration and the KM of the substrate (23 μM); rat brain membranes, 50 μM A-AP-Amc
pKi: −log10 of the molar value. Counter-ions that a name gives are not always drawn. Where a SMILES comes first, the peptide text is derived from it. [ ]: non-standard residue; d: D form. The star is where a group is joined. ξ: configuration not given here. Pro(cis-4-F) = O=C(O)[C@@H]1C[C@H](F)CN1; Abu = CC[C@H](N)C(=O)O; ξAbu = CCC(N)C(=O)O; NHBu = CCCCN*
Label satisfied when pKi is at or above 7; otherwise label not satisfied.

Example results:
{"columns": ["COMPOUND", "EXPERIMENTAL SYSTEM", "DISCRETE LABEL"],
 "data": [
  ["CCCCNC(=O)[C@@H]1Cc2cc(OC)ccc2N1C(=O)[C@@H](N)CC [18 (S,S) isomer]", "membrane-bound tripeptidylpeptidase II (Rattus norvegicus)", "satisfied"],
  ["CCCCNC(=O)C1Cc2cc(OCc3ccccc3)ccc2N1C(=O)[C@@H](N)CC (mixture of isomers) [Example 21]", "membrane-bound tripeptidylpeptidase II (Rattus norvegicus)", "not satisfied"],
  ["CCCCNC(=O)C1C(C)c2ccccc2N1C(=O)C(N)CC (single isomer, unassigned) [Example 29]", "membrane-bound tripeptidylpeptidase II (Rattus norvegicus)", "not satisfied"],
  ["CCCCNC(=O)[C@@H]1Cc2cc(OC)ccc2N1C(=O)[C@H](C)N.O=C(O)C(=O)O [Example 26, Oxalate]", "membrane-bound tripeptidylpeptidase II (Rattus norvegicus)", "satisfied"]
]}

Asked: Check this compound for pKi at or above 7: CCCCNC(=O)C1Cc2c(OC)cccc2N1C(=O)[C@@H](N)CC (mixture of isomers) [Example 27, Oxalate]
Given back: satisfied

Asked: What about CC[C@H](N)C(=O)N1CCC[C@H]1C(=O)NCC(C)C [Example 7] ?
Given back: not satisfied

Asked: Lookup CCC(N)C(=O)N1CCC[C@H]1C(N)=O (stereo partly drawn) [2 (S)-aminobutyryl-L-prolineamide, reference compound] (H-[ξAbu]-Pro-NH2)
Given back: not satisfied

Asked: # iterate: CCCCNC(=O)C1C(C)c2ccccc2N1C(=O)C(N)CC (single isomer, unassigned) [Example 30]
Given back: satisfied

Asked: And for CC[C@H](N)C(=O)N1CCC[C@H]1C(=O)NCCCSC [Example 2] ?
Given back: not satisfied

Asked: Then this compound: CCCCNC(=O)[C@@H]1Cc2c(OCC)cccc2N1C(=O)[C@@H](N)CC.O=C(O)C(=O)O [Example 31, Oxalate]
Given back: satisfied

Asked: Request: CCCCCNC(=O)[C@@H]1CCCN1C(=O)[C@@H](N)CC [Example 3]
Given back: not satisfied

Asked: CCCCNC(=O)[C@@H]1C[C@H](F)CN1C(=O)[C@@H](N)CC [Example 11] (H-[Abu]-[Pro(cis-4-F)]-NHBu) , same question.
Given back: not satisfied

Asked: Request: CCCCNC(=O)C1Cc2cc(O)ccc2N1C(=O)[C@@H](N)CC (mixture of isomers) [Example 34, Oxalate]
Given back: satisfied

###

molecules and their reported pKi
- EXPERIMENTAL SYSTEM: membrane-bound tripeptidylpeptidase II (Rattus norvegicus, UniProt Q64560)
- Sequence (Q64560 whole entry): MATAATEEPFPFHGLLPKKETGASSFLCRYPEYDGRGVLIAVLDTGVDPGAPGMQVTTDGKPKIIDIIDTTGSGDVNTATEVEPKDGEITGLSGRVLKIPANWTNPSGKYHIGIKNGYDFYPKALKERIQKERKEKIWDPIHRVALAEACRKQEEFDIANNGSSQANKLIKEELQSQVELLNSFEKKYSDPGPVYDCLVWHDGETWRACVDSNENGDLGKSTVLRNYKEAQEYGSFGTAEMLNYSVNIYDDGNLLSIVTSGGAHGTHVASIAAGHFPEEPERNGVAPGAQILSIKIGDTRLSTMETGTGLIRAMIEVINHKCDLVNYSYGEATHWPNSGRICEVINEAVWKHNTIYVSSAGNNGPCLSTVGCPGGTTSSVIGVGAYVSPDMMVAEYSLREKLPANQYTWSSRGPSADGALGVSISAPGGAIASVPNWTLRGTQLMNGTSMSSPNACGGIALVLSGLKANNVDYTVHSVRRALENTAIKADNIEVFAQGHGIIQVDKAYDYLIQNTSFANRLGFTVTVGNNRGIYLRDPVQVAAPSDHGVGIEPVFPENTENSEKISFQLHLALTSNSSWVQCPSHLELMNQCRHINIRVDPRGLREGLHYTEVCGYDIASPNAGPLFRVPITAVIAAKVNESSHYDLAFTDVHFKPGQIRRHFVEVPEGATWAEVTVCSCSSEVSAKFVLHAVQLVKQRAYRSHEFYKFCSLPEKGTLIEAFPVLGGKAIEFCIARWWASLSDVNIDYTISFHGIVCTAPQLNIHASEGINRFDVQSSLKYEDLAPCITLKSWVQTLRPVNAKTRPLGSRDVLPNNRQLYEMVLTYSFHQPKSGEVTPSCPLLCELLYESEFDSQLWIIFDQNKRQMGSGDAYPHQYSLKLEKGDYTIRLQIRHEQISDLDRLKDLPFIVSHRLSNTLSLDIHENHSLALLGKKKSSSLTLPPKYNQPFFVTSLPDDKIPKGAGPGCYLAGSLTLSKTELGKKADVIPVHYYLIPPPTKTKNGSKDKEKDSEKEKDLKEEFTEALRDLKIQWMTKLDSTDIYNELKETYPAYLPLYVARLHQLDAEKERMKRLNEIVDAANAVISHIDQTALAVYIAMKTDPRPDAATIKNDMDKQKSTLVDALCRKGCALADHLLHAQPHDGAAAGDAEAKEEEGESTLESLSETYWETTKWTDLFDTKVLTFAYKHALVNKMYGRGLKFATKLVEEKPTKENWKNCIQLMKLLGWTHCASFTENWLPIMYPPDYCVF
- ASSAY NOTES: Measurement of the activity of membrane-bound tripeptidylpeptidase (release of Amc from A-AP-Amc, fluorimetry)
- CONDITION SUMMARY: Ki, apparent dissociation constant calculated from the 50% inhibitory concentration and the KM of the substrate (23 μM); rat brain membranes, 50 μM A-AP-Amc
Where a name gives a salt, the structure may show the parent alone. Where a SMILES comes first, the peptide text is derived from it. [ ]: non-standard residue; d: D form. The star is where a group is joined. Tic = O=C(O)[C@@H]1Cc2ccccc2CN1; Abu = CC[C@H](N)C(=O)O; NHBu = CCCCN*
pKi is defined as minus the log10 of a concentration measured in mol/L.

These recorded examples may help you get a feel for the data.
{"columns": ["MOLECULE", "MEASURED"],
 "data": [
  ["CCCCNC(=O)[C@H]1Cc2cc(OC)ccc2N1C(=O)[C@@H](N)CC [18 (S,R) isomer]", 6.62],
  ["CCCCNC(=O)[C@@H]1Cc2ccccc2CN1C(=O)[C@@H](N)CC [Example 13] (H-[Abu]-[Tic]-NHBu)", 7.40],
  ["CCCCNC(=O)C1Cc2c(ccc(OC)c2OC)N1C(=O)[C@@H](N)CC (mixture of isomers) [Example 32, Oxalate]", 8.02]
]}

Alright, here's another molecule for you.
Asked: // pKi lookup, key: CCCCNC(=O)C1N(C(=O)[C@@H](N)CC)c2ccccc2C1(C)C (mixture of isomers) [Example 28, Oxalate]
Given back: 6.06

###

Where a name gives a salt, the structure may show the parent alone. Where a SMILES comes first, the peptide text is derived from it. [ ]: non-standard residue; d: D form. The star is where a group is joined. Oic = O=C(O)[C@@H]1C[C@@H]2CCCC[C@@H]2N1; Tic = O=C(O)[C@@H]1Cc2ccccc2CN1; Abu = CC[C@H](N)C(=O)O; NHBu = CCCCN*; NHPr = CCCN*
Documented melting point across a set of compounds

Solved cases below.
{"columns": ["COMPOUND", "melting point"],
 "data": [
  ["CC[C@H](N)C(=O)N1CCC[C@H]1C(=O)NCC(C)C (as salt: trifluoroacetate)", "58 to 61 °C"],
  ["CCCCNC(=O)[C@@H]1Cc2ccccc2CN1C(=O)[C@@H](N)CC (as salt: oxalate) [Example 13] (H-[Abu]-[Tic]-NHBu)", "105 to 110 °C"],
  ["CCCCNC(=O)[C@@H]1C[C@@H]2CCCC[C@@H]2N1C(=O)[C@@H](N)CC (as salt: salt) [Example 22] (H-[Abu]-[Oic]-NHBu)", "168 to 169 °C"],
  ["CCCCNC(=O)C1Cc2cc(C)ccc2N1C(=O)[C@@H](N)CC.O=C(O)C(=O)O (mixture of isomers)", "110 to 112 °C"]
]}

Asked: Need melting point, item CCCCCCNC(=O)[C@@H]1CCCN1C(=O)[C@@H](N)C(C)C (as salt: oxalate) [Example 1, L-valyl-L-proline n-hexylamide]
Given back: 146 to 147 °C

Asked: Repeat with CCCNC(=O)[C@@H]1CCCN1C(=O)[C@@H](N)CC (as salt: trifluoroacetate) [Example 6] (H-[Abu]-Pro-NHPr)
Given back: 46 to 51 °C

Asked: Okay, and CCCCNC(=O)C1Cc2cc(OC)ccc2N1C(=O)[C@@H](N)C(C)C.O=C(O)C(=O)O (mixture of isomers) ?
Given back: 112 to 120 °C

###

// values below are reported pKi
- EXPERIMENTAL SYSTEM: membrane-bound tripeptidylpeptidase II (Rattus norvegicus)
- ASSAY NOTES: Measurement of the activity of membrane-bound tripeptidylpeptidase (release of Amc from A-AP-Amc, fluorimetry)
- CONDITION SUMMARY: apparent dissociation constant calculated from the 50% inhibitory concentration and the KM of the substrate (23 μM); rat brain membranes, 50 μM A-AP-Amc
To interpret pKi, take it as minus log10 of a concentration measured in moles per litre.

{"columns": ["MOLECULE", "pKi"],
 "data": [
  ["CCCCNC(=O)[C@@H]1C[C@H](Cc2ccccc2)CN1C(=O)[C@@H](N)CC", 6.85]
]}

We next turn to a different molecule, shown below.
Asked: Quick check: pKi of CC(C)[C@H](NC(=O)[C@@H]1CCCN1C(=O)[C@H](C)N)B1OC2CC3CC(C3(C)C)C2(C)O1 (some centres unmarked) ?
Given back: 9.52

The measured values listed here are drawn from patent US6403561B1.
